meta.source: paper PMC7948503

Target: T1, Rluc-ADGRG2-ΔGPS-β V768A (mouse, UniProt Q8CJ12-3 38-995, V768A)
T1 construct: ADGRG2 (GPR64), mouse, ADGRG2-ΔGPS-β: the entire ECD removed; source: HEK293, transfected, on cells; not shown: Rluc, N-terminal, kept
T1 sequence (Q8CJ12 other isoform, or with tags, fused parts or gaps V768A | V768A | V768A V768A): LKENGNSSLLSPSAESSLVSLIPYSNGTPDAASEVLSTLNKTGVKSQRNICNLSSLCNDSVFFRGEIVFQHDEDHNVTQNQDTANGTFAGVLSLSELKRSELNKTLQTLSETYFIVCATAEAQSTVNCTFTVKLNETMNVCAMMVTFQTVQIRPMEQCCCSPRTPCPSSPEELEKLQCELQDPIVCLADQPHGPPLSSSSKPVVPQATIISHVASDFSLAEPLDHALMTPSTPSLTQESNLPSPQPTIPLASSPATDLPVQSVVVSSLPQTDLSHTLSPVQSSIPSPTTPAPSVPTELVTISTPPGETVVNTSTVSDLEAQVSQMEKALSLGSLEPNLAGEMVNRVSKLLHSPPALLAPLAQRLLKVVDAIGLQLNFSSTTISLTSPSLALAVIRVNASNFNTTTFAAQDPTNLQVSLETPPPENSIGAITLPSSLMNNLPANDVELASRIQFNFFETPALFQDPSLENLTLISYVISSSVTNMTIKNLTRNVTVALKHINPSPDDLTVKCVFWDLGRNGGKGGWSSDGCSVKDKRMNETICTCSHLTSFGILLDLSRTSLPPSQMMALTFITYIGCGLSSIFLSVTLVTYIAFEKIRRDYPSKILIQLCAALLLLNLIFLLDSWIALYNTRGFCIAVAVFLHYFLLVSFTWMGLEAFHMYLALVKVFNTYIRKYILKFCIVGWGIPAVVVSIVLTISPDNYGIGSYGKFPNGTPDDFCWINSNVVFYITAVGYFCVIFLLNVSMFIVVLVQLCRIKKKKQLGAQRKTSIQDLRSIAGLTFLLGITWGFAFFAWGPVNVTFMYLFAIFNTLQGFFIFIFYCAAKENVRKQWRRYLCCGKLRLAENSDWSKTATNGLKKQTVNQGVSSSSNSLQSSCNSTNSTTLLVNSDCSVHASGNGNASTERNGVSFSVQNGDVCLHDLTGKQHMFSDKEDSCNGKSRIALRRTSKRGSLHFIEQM
Assay: FRET or BRET; HEK293 cells transfected with Rluc-ADGRG2-ΔGPS-β WT or mutants, stimulated by increasing concentrations of FITC-conjugated VPM-p15; saturation curves fitted with GraphPad; each experiment repeated 6 times
Conditions: one partner purified
Non-standard residues stand in square brackets, D forms with d. Primed or numbered codes have the meaning given here. No end group written: not given here. Phe(4-Me) = Cc1ccc(C[C@H](N)C(=O)O)cc1; FITC′ = not defined here
Assay metric: pEC50
Scale: pEC50 equals -log10([C]), with [C] in mol/L.

q: Item under review: VS[Phe(4-Me)]GILLDLSRTSLP-{FITC′} [FITC-conjugated VPM-p15 (ADGRG2 Stachel peptide p15 T1V/F3Phe(4-Me))] . Reported pEC50?
a: 5.98
